Each recorded value in this set is attributed to ChEMBL document CHEMBL1201862.

Recorded GI50, one value per entry.
Test system: SR
ASSAY OVERVIEW: NCI tumour cell line growth inhibition, 48 h
Active and inactive are the calls of the source. Rule as the data show it: active = GI50 up to about 1.1 µM and inactive = higher.

{"MOLECULE": "C/C(=N/NC(=S)Nc1ccccc1Cl)c1cccc(/C(C)=N\\NC(=S)Nc2ccccc2Cl)n1", "GI50": "5.66 µM (inactive)"}
{"MOLECULE": "COc1ccc(C)cc(O)c1=O", "GI50": "5.28 µM (inactive)"}
{"MOLECULE": "O=c1[nH]nc(-c2ccccc2)n1/N=C\\CC/C=N\\n1c(-c2ccccc2)n[nH]c1=O", "GI50": "34 µM (inactive)"}
{"MOLECULE": "OC1NC2Nc3ccccc3NC2NC1O (stereo unspecified)", "GI50": "> 100 µM (inactive)"}
{"MOLECULE": "CCOP(=O)(OCC)[C@]12C[C@@H](C)C=C[C@H]1COC2=O", "GI50": "> 100 µM (inactive)"}
{"MOLECULE": "CC(C)(C)[Si](C)(C)OCCOCn1cc(F)c(=O)[nH]c1=O", "GI50": "> 100 µM (inactive)"}

Q) So what GI50 did CN(C)CC1CN/C(=N\C(=O)Nc2ccccc2)O1 (stereo unspecified) get with SR?
A) > 100 µM (inactive)

Q) // query: CC1C(c2ccccc2)=CCON1c1ccccc1 (stereo unspecified)
A) > 100 µM (inactive)

Q) // query: `CCOC(=O)c1cc(Br)c(-c2cc(C)co2)[nH]1`
A) 31.8 µM (inactive)

Q) // query: Cc1ccc(NC(=O)CC(=O)N2N=C(N(C)c3ccccc3)CC2c2ccccc2)cc1 (stereo unspecified)
A) > 100 µM (inactive)

Q) // query: `COc1ccc(Nc2ccc3ccccc3c2-c2c(O)ccc3ccccc23)cc1`
A) 4.93 µM (inactive)

====

Tested on: HOP-92
ASSAY OVERVIEW: NCI tumour cell line growth inhibition, 48 h
Active and inactive are the calls of the source. No stated cut-off is given here; in the data, active = GI50 up to about 1.1 µM and inactive = higher.
Recorded GI50, one value per entry.

{"COMPOUND": "Cc1ccc(/C=C2\\N=C(N3CCCCC3)NC2=O)cc1", "GI50": "> 100 µM (inactive)"}
{"COMPOUND": "N#Cc1ccc(Sc2ccccc2)cc1C#N", "GI50": "30.1 µM (inactive)"}

Q) Can you share its GI50? I mean this compound: `CCOC(=O)c1c(SCCCN2CCCCC2)n(-c2ccccc2)c(=S)n(-c2ccccc2)c1=O`
A) 14.4 µM (inactive)

Q) // query: COC1C(O)C(C)OC(O[C@H]2CC[C@@]3(C)C(CC[C@@H]4[C@@H]3CC[C@]3(C)[C@@H](C(C)OC5OC(CO)C(O)C(O)C5O)CC[C@]43O)C2)C1O (stereo not given in full)
A) > 25 µM (inactive)

Q) // query: Cc1ccc([S+]([O-])C[C@](NC(=O)OCc2ccccc2)(Sc2ccccc2)C(F)F)cc1 (stereo not given in full)
A) 17.8 µM (inactive)

====

Test system: SK-MEL-28
ASSAY OVERVIEW: NCI tumour cell line growth inhibition, 48 h
Active and inactive are the calls of the source. Cut-off read from the data, not from the text of the source: active = GI50 up to about 1.1 µM and inactive = higher.
QUANTITY: GI50

Completed entries (count: 5):
{"COMPOUND": "CC1(C)C2C/C(=C\\c3ccccc3)C(=O)C1C2 (centres undefined)", "GI50": "87.5 µM (inactive)"}
{"COMPOUND": "O=[PH](O)c1ccsc1", "GI50": "> 100 µM (inactive)"}
{"COMPOUND": "O=C(CCc1n[nH]c(=S)o1)Nc1cc(Cl)c(Cl)cc1Cl", "GI50": "60.1 µM (inactive)"}
{"COMPOUND": "COc1ccc2oc(=O)c(-c3csc(C)n3)cc2c1", "GI50": "> 100 µM (inactive)"}
{"COMPOUND": "COC(=O)C(CC(=O)c1ccccc1)c1ccccc1NC(C)=O (centres undefined)", "GI50": "> 100 µM (inactive)"}

Q) Can you share its GI50? I mean this compound: C[C@H](C(O)CC(=O)C(C)(C)O)[C@H]1CC[C@@]2(C)[C@@H]3CC[C@H]4C(C)(C)[C@@H](OC5OC(COC6OC(CO)C(O)C(O)C6O)C(O)C(O)C5O)CC[C@]4(C)C3=CC[C@]12C (some centres undefined)
A) > 100 µM (inactive)

Q) // query: `O=C1/C(=C/c2ccccc2)N=C(c2ccccc2)N1n1c(-c2ccccc2)nc2ccccc2c1=O`
A) 74.3 µM (inactive)

Q) // query: `CC(C)(C)c1ccc2c(c1)CNCCNCc1cc(C(C)(C)C)ccc1OCC1(CO2)COc2ccc(C(C)(C)C)cc2CNCCNCc2cc(C(C)(C)C)ccc2OC1`
A) 1.71 µM (inactive)

Q) // query: CCOc1ccccc1NC(=O)CC(C(=O)OC)C(=O)C(=O)OC (centres undefined)
A) > 100 µM (inactive)

====

Recorded GI50, one value per entry.
Test system: KM-20L2
ASSAY OVERVIEW: NCI tumour cell line growth inhibition, 48 h
Active and inactive are the calls of the source. Cut-off read from the data, not from the text of the source: active = GI50 up to about 1.1 µM and inactive = higher.

{"COMPOUND": "O=c1c(O)c(-c2ccc(O)c(O)c2)oc2cc(O)cc(O)c12", "GI50": "83.6 µM (inactive)"}
{"COMPOUND": "CC1C(c2ccccc2)=CCON1c1ccccc1 (stereo not drawn)", "GI50": "> 100 µM (inactive)"}
{"COMPOUND": "COc1cc2c(cc1O)[C@H](C)C(c1ccccc1OC)O2 (stereo partly drawn)", "GI50": "5.07 µM (inactive)"}

Q) So what GI50 did `COc1ccc(C)cc(O)c1=O` get with KM-20L2?
A) 40.2 µM (inactive)

Q) // query: `CCCn1c(SCCSc2c3ccccc3c(-c3nc(F)nc(F)n3)n2CCC)c2ccccc2c1-c1nc(F)nc(F)n1`
A) 91.6 µM (inactive)

Q) // query: CC(C)(C)[Si](OC1CC(n2cnc3c(N)ncnc32)OC1CO)(c1ccccc1)c1ccccc1 (stereo not drawn)
A) 15.4 µM (inactive)

Q) // query: `CS(=O)(=O)N(CCC#N)c1ccc(/C=N/NC(=O)CC(=O)Nc2cccc(Cl)c2)cc1`
A) > 100 µM (inactive)

Q) // query: `CCOC(=O)C(C(=O)c1ccccc1-c1ccccc1C(=O)O)=P(c1ccccc1)(c1ccccc1)c1ccccc1`
A) 21 µM (inactive)

Q) // query: `CCc1cccc(C)c1NS(=O)(=O)c1ccccc1`
A) > 100 µM (inactive)

====

Test system: K562
ASSAY OVERVIEW: NCI tumour cell line growth inhibition, 48 h
The source made the active and inactive calls. Cut-off read from the data, not from the text of the source: active = GI50 up to about 1.1 µM and inactive = higher.
A correct response names exactly one class from t for active, f for inactive

{"COMPOUND": "Fc1c(F)c(C(F)(F)F)c(F)c(F)c1N/N=C\\c1c[nH]c2ccccc12", "TESTED TARGET": "K562", "GROUP": "f"}
{"COMPOUND": "COC(=O)C(CC(=O)c1ccccc1)c1ccccc1NC(C)=O (centres undefined)", "TESTED TARGET": "K562", "GROUP": "f"}
{"COMPOUND": "O=c1[nH]/c(=C/c2ccc(OCc3ccccc3)cn2)c(=O)[nH]/c1=C/c1ccc(O)cc1", "TESTED TARGET": "K562", "GROUP": "t"}
{"COMPOUND": "CN(C)CC1CCCC/C1=N/OC(=O)c1ccc(Cl)c(Cl)c1 (centres undefined)", "TESTED TARGET": "K562", "GROUP": "f"}
{"COMPOUND": "CC(=O)ON(C(C)=O)C1C(COC(c2ccccc2)(c2ccccc2)c2ccccc2)OC2OC3(CCCC3)OC21 (centres undefined)", "TESTED TARGET": "K562", "GROUP": "f"}
{"COMPOUND": "O=C(CC(=O)N1N=C(N2c3ccccc3Sc3ccccc32)CC1c1ccccc1)Nc1ccccc1Cl (centres undefined)", "TESTED TARGET": "K562", "GROUP": "f"}
{"COMPOUND": "CN1C(=O)[C@@H]2[C@@H]3c4ccccc4N[C@@H]3c3[nH]c4ccccc4c3[C@@H]2C1=O", "TESTED TARGET": "K562", "GROUP": "f"}
{"COMPOUND": "CCOC(=O)c1nc2ccccc2nc1NCc1ccc(OC)c(OC)c1", "TESTED TARGET": "K562", "GROUP": "f"}

Q) Status in this test for `Nc1nn2c(nc(N)c3c(N)n[nH]c32)c1/N=N\c1ccc(Br)cc1` ?
A) f

Q) // query: `CCOc1ccc2ccccc2c1NC1=NCCO1`
A) f

Q) // query: `CC1=C2C(=CO[C@H](C)[C@H]2C)C(O)=C(C(=O)O)C1=O`
A) f

Q) // query: Oc1ccc2c3c1OC1c4[nH]ncc4C[C@H]4[C@@H](C2)N(CC2CC2)CC[C@]314 (some centres undefined)
A) f

Q) // query: Cc1ccc([S+]([O-])C[C@](NC(=O)OCc2ccccc2)(Sc2ccccc2)C(F)F)cc1 (some centres undefined)
A) f

Q) // query: `C[C@@H]1C[C@](O)([C@@H](C)Cl)C(=O)O[C@@H]2CCN3CC=C(COC(=O)[C@]1(C)O)[C@H]23`
A) f

Q) // query: COC(=O)CC(c1ccccc1)C(C#N)(OP1(=O)OC(c2ccccc2)C(C)N1C)c1ccccc1 (centres undefined)
A) f

Q) // query: `N#Cc1cc([N+](=O)[O-])ccc1NC(=O)C(=O)Nc1n[nH]c(N)n1`
A) f

Q) // query: `O=S(=O)(c1ccccc1)c1ccc(-c2nc(-c3ccc4c(c3)Sc3ccccc3S4)cs2)cc1`
A) f

Q) // query: CC(=O)NC(CCCNC(=O)NCCCl)C(=O)NCc1ccccc1 (centres undefined)
A) f

Q) // query: N#CC1=C(N)C(C#N)(C#N)C(c2ccc(F)cc2)C=C1C1CC1 (centres undefined)
A) f
